- System: HCT-116 colon
- experiment notes: NCI tumour cell line growth inhibition, 48 h
Can you tell me TGI for the items I'm about to list?

[ask] Which TGI value is on record for C=C(CC[C@@H](C)[C@H]1CC[C@@]2(C)C3=C(CC[C@]12C)[C@@]1(C)CC[C@H](O)[C@@H](C)C1CC3)C(C)C (stereo not given in full) ?
[reply] 2.48 µM

[ask] // same read-out, input: COc1cc2c3c(n(CCNCCCNCCn4c5c(c6cc(OC)c(OC)cc6c4=O)C(=O)c4ccccc4-5)c(=O)c2cc1OC)-c1ccccc1C3=O
[reply] 1.16 µM

[ask] Repeat for the following compound: Clc1ccc(-c2c(C3=NCCCN3)nnn2-c2ccc(Cl)cc2)cc1
[reply] > 75.6 µM

[ask] Now the same for COc1cc2c(c(OC)c1)C1(CC(CC#N)C2)SCCS1 (stereo not given)
[reply] > 100 µM

[ask] Try COc1cc(/C=C2\N=C(c3ccccc3)N(c3nc4c(OC)ccc(OC)c4s3)C2=O)ccc1O next.
[reply] > 100 µM
